Reference source for all entries: PubChem BioAssay AID1440

Target: Guanine nucleotide-binding protein G(o) subunit alpha (Homo sapiens) + Regulator of G-protein signaling 19 (Homo sapiens) (UniProt P09471+P49795)
Sequence (P09471 whole entry, looked up): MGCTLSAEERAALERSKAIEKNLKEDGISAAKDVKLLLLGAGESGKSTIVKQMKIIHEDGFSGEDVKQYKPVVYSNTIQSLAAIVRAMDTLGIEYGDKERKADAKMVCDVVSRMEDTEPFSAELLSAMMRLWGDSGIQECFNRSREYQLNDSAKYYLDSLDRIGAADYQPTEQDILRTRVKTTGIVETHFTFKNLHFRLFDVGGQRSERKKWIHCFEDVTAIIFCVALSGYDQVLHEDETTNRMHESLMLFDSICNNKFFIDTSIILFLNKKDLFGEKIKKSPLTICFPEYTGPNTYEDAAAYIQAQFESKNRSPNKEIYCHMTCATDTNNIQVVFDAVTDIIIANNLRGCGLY
Sequence (P49795 whole entry, looked up): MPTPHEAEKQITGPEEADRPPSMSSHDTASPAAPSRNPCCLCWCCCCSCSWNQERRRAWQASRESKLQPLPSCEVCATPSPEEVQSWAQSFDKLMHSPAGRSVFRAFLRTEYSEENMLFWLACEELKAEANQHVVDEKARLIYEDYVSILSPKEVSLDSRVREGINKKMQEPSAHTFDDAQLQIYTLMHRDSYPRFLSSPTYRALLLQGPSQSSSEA
Test: modulators of human RGS19-Gαo interaction – biochemical, multiplexed bead flow cytometry (AID 1440);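 note: fluorescent Galpha o activated by aluminum fluoride binding bead-coupled RGS19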
Conditions: RGS19-Galphao binding, at 10 µM
Out of some 220,000 compounds screened, fewer than 10 were called active. About 92% were inconclusive and are not listed. A selection follows.

{"columns": ["molecule", "binding response (% of control), %"],
 "data": [
  ["COC(=O)c1c(CSc2cccc(C)c2)noc1C(=O)NCc1ccco1", 102],
  ["Cc1ccccc1-n1nc(C)c2cc(C(=O)N3CCN(S(=O)(=O)c4ccc(Cl)cc4)CC3)sc21", 94.8],
  ["Cc1cc(NC(=O)Cn2c(=O)c3c(ncn3CCC(C)C)n(Cc3ccccc3)c2=O)no1", 106],
  ["Cc1ccc(-c2cnc(N)n2C)cc1C", 94.5],
  ["Cc1cc(C)c(C#N)c(SCC(=O)N2CCCCC2)n1", 91.6],
  ["BrC(/C=C\\c1ccccc1)=N/Nc1nc(N2CCOCC2)nc(N2CCOCC2)n1", 98.4],
  ["CCc1ncc(C(=O)c2ccc(OC)cc2)n1C", 108],
  ["O=c1[nH]c2cc3c(cc2cc1CN(Cc1ccc2c(c1)OCO2)Cc1nnnn1CC1CCCO1)OCO3 (stereo not given)", 90.7],
  ["O=C(NCc1ccccc1)c1ccccc1OCC(=O)N1CCCCC1", 38.1],
  ["Cc1ccc(NC(CC(=O)c2ccccc2)c2ccc(F)cc2)cc1 (stereo not given)", 100],
  ["COC(=O)c1ccccc1OC(=O)c1ccc(Br)o1", 102],
  ["CCC(C)[C@H](NC(=O)N1CCCC1)C(=O)OC (stereo not given in full)", 117],
  ["Cc1ccc(C(=O)NNC(=O)C2CCN(Cc3ccccc3)CC2)cc1", 96.2],
  ["CCCCC(=O)Nc1nc(C)c(-c2csc(Nc3cc(Cl)ccc3OC)n2)s1", 148],
  ["Cc1ccc(S(=O)(=O)N2CC3(C)CN(S(=O)(=O)c4ccc(C)cc4)CC(C)(C2)C3=O)cc1", 103],
  ["CC(NC(=O)Nc1ccc(F)cc1F)c1ccncc1 (stereo not given)", 70.2],
  ["O=Nc1c(O)n(Cc2ccc(Cl)c(Cl)c2)c2ccccc12", 70.4],
  ["Cc1ccc(Cl)cc1N(Cc1ccc(C(=O)NCc2cccnc2)cc1)S(=O)(=O)c1ccccc1", 98.3],
  ["COC(=O)CSc1nnnn1-c1cccc2ccccc12", 106],
  ["O=C(c1cnccn1)N(Cc1cccs1)C1(C(=O)NC2CCCCC2)CCCCC1", -941],
  ["CCc1ccc(OCC(=O)Nc2cc(S(=O)(=O)CC)ccc2O)cc1", 89.9],
  ["O=C1CC2(CON=C2c2ccc(F)cc2)C(=O)N1c1ccc(F)cc1 (stereo not given)", 72.5],
  ["CCOC(=O)c1ccc(N2CN=C3SCC(=O)N3C2)cc1", 94.6],
  ["Cc1cccc(NC(=S)NC2CC3CCC(C2)N3Cc2ccco2)c1 (stereo not given)", 113],
  ["COc1ccc2cnnc(SCC(=O)Nc3ccccc3)c2c1OC", 118],
  ["O=S1(=O)CCN2C(Cc3ccc(SC(F)F)cc3)=CSC2=N1", 121],
  ["Cc1c(NC(=O)CSc2nc3c(cnn3-c3ccccc3)c(=O)[nH]2)c(=O)n(-c2ccccc2)n1C", 125],
  ["O=C(c1ccccc1F)N1CCN(c2ccccc2)CC1", 64.3],
  ["CC(C)CNC(=O)COC(=O)c1ccc(Cl)c(S(N)(=O)=O)c1", 107],
  ["Cc1cc(NC(=O)c2cnn3c(C(F)(F)F)cc(-c4ccccc4)nc23)no1", 103],
  ["CCOC(=O)c1[nH]nc(-c2cc(CC)c(O)cc2O)c1-c1cscn1", 56.9],
  ["CS(=O)(=O)N1CCN(C(=O)c2cc(-c3cccs3)nc3ccccc23)CC1", 103],
  ["FC(F)Oc1ccc(-c2c[n+]3c(n2-c2ccccc2)CCCCC3)cc1", 256],
  ["COc1ccc(Cc2nc3ccc(S(N)(=O)=O)cc3[nH]2)cc1OC", 56.5],
  ["COC(=O)Cc1c(C)nc2nc(-c3ccc(Cl)cc3)[nH]n2c1=O", 112],
  ["CCOC(=O)c1nnn(-c2nc(N3CCCC3)nc(N3CCCC3)n2)c1-c1ccccc1", 112],
  ["CCc1nnc(NC(=O)COC(=O)CN2C(=O)c3ccccc3C2=O)s1", 62.2],
  ["Cc1ccc(/C=C2\\CCCC3=C2NC(=S)NC3c2ccc(C)cc2)cc1 (stereo not given)", 203],
  ["CN(C)S(=O)(=O)c1ccc(C(=O)Nc2nnc(SCc3ccccc3)s2)cc1", -32.2],
  ["NC(=S)N/N=C1\\CCSc2ccc(Cl)cc21", 69],
  ["CC(=O)c1nc2ccccc2n1S(=O)(=O)c1ccc(C)cc1", 97.2],
  ["CCN1CCN(C(c2cccs2)C(C)NC(=O)c2c(F)cccc2F)CC1 (stereo not given)", 114],
  ["CCCCCOc1ccc(NC(=O)CCCC(=O)O)cc1", 81.9],
  ["CCOc1ccc(C2NC(=O)c3sc(=S)n(-c4ccccc4)c3N2)cc1 (stereo not given)", 87.5],
  ["COc1ccc(Br)cc1-c1noc(-c2ccncc2)n1", 92.5]
]}
